# TARGET DESC: hFASN enzyme (full length) (Homo sapiens)
# Construct: 10 μL hFASN enzyme (full length, 300 ng, purified in house); made in house
# Sequence (P49327 whole entry): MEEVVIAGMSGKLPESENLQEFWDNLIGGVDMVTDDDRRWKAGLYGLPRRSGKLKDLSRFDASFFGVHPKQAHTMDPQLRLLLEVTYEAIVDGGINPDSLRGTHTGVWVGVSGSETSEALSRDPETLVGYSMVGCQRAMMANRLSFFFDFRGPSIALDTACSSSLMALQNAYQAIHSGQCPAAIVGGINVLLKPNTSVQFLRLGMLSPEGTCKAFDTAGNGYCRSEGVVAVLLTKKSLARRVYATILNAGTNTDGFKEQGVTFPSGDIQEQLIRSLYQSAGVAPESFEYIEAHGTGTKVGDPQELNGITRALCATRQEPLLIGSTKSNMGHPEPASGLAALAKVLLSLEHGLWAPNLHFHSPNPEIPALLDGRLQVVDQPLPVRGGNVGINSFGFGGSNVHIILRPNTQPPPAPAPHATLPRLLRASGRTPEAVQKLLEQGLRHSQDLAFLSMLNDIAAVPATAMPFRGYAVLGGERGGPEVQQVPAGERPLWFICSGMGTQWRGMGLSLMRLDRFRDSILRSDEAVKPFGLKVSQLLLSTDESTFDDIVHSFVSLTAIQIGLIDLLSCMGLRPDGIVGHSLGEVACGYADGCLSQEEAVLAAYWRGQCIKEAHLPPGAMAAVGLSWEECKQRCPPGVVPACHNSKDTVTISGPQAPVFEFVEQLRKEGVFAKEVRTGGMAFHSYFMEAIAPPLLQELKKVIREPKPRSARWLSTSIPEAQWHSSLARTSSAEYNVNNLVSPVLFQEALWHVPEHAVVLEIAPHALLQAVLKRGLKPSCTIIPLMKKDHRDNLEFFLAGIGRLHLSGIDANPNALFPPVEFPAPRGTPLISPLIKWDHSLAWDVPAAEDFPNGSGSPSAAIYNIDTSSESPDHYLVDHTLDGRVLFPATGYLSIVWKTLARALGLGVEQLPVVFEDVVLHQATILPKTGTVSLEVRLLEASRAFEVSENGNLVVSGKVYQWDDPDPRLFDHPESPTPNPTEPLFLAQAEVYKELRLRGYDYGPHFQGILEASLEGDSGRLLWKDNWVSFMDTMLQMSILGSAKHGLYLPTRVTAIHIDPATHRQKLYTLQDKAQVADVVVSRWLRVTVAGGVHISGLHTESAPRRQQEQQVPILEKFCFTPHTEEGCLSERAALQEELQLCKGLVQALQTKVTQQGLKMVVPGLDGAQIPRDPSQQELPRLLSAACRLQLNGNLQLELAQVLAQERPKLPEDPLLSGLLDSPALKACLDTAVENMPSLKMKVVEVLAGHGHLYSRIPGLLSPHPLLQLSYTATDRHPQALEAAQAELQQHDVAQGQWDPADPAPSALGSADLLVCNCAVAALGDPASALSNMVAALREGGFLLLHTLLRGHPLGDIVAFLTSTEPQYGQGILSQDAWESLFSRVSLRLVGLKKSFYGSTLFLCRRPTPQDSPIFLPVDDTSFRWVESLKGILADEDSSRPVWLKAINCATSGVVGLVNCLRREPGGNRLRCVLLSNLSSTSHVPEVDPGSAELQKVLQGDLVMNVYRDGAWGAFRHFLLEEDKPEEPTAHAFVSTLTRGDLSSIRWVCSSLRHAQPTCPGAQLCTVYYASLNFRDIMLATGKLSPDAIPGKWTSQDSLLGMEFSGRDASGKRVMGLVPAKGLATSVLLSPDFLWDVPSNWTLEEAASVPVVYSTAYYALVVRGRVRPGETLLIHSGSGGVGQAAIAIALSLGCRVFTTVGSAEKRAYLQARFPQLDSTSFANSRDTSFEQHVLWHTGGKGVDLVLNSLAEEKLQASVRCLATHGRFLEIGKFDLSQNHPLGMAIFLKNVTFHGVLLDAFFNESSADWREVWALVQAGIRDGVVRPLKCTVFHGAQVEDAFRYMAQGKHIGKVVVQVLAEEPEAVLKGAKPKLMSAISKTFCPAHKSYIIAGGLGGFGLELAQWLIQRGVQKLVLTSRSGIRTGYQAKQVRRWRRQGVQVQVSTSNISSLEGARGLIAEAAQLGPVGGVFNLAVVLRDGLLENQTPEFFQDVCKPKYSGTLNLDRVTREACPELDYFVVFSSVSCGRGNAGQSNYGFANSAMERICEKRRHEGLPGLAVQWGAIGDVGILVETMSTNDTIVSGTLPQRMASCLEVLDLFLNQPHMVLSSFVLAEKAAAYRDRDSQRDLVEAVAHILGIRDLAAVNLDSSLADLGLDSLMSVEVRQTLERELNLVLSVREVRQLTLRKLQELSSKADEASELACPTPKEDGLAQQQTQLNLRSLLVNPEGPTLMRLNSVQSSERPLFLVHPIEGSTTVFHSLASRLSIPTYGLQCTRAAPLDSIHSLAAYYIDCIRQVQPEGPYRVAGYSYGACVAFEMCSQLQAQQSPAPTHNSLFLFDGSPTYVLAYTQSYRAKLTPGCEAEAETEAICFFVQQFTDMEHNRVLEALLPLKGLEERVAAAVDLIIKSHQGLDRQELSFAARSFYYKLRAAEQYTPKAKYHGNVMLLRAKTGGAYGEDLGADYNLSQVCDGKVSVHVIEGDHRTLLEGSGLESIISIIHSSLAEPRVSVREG
# ASSAY DETAILS: Fatty Acid Synthase (FASN) inhibition scintillation proximity assay
# Assay type: biochemical
# RUN PARAMETERS: read-out: Human FASN % inhibition @ 10 μM, 10 μM test compound
Catalogue of compounds with associated inhibition at 10 µM
State the answer as a number, implicitly in %.

O=C(C1CC1)N1CC[C@@H](CN2C(=O)C3(CC3)N=C2c2ncc(-c3ccc4occc4c3)cn2)C1
72
O=C(C1CC1)N1CC[C@@H](CN2C(=O)C3(CC3)N=C2c2ccc(-c3ccc4sccc4c3)cc2F)C1
100
Cn1cc(-c2ccc(-c3ccc(C4=NC5(CCN(S(C)(=O)=O)CC5)C(=O)N4CC4CN(C(=O)C5CC5)C4)cc3)cc2)cn1
60
O=C(C1CC1)N1CC[C@@H](CN2C(=O)C3(CCCC3)N=C2c2ccc(-c3ccc4[nH]ccc4c3)cc2)C1
103
O=C(C1CC1)N1CC[C@@H](CN2C(=O)C3(CC3)N=C2c2ccc(-c3ccc4[nH]ccc4c3)cn2)C1
102

Query :: Item O=C(c1nccs1)N1CC[C@@H](CN2C(=O)C3(CCOCC3)N=C2c2ccc(-c3ccc4cccnc4c3)cc2)C1 : provide inhibition at 10 µM
Result :: 62

Query :: Item Cc1cc2cc(-c3ccc(C4=NC5(CC5)C(=O)N4C[C@@H]4CCN(C(=O)C5CC5)C4)c(F)c3)ccc2o1 : provide inhibition at 10 µM
Result :: 103
